- EXPERIMENT NOTES: AUC (0 to 24 hrs) in Sprague-Dawley rat at 10 mg/kg, iv by HLPC-MS/MS analysis
- Assay type: ADME, organism-based
- Design: time < 24 hr, dose 10 mg/kg, route iv
- EXPERIMENTAL CONTEXT: in vivo
READOUT LABEL: AUC(0-t) at 24 h (µg·h/mL)
Response body: numeric value in µg·h/mL, unit text excluded.

Entry O=C1C=CN(c2c(F)cc(N3C[C@H](CNc4ccon4)OC3=O)c(F)c2F)CC1 — recorded AUC(0-t) at 24 h = 25.4

====

- EXPERIMENT NOTES: Aqueous solubility of the compound in deionized water at 25 degC
- Format: physicochemical
READOUT LABEL: solubility (µg/mL)
Response body: numeric value in µg/mL, unit text excluded.

Entry O=C1C=CN(c2c(F)cc(N3C[C@H](CNc4ccon4)OC3=O)c(F)c2F)CC1 — recorded solubility = 200
